molecular target: D(2) dopamine receptor (Homo sapiens, UniProt P14416); experiment: Binding potency of compound for Dopamine receptor D2 by displacement of [3H]spiperone
Sequence (P14416 whole entry): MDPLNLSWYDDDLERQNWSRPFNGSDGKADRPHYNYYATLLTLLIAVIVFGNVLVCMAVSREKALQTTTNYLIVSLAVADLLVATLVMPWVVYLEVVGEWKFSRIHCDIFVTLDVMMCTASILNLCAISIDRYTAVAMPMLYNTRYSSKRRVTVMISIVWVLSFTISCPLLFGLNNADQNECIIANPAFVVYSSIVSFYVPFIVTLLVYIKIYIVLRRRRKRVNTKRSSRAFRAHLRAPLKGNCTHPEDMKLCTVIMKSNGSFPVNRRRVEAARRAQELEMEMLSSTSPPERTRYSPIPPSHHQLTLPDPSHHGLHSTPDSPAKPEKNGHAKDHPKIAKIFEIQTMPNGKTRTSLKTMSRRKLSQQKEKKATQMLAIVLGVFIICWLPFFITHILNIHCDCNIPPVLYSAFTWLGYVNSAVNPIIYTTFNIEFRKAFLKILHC
EXPERIMENTAL ENDPOINT: Ki (µM)
One number for each entry, in µM.

Observe how each entry below is paired with its result.
CN1Cc2cc(Cl)c(O)cc2[C@H](c2ccccc2)C1	0.263
CN1CCc2cc(Cl)c(O)cc2[C@H]1c1ccccc1	19.1

Hey, can you go through the list below and give me Ki for every item?
1. Oc1cc2c(cc1Cl)CNC[C@H]2c1ccccc1
2. CCCN1CCc2cc(Cl)c(O)cc2[C@@H]1c1ccccc1
3. CN1CCc2cc(Cl)c(O)cc2[C@@H]1c1ccccc1
4. Oc1cc2c(cc1Cl)CCN[C@H]2c1ccccc1
5. CN1CCc2cc(Cl)c(O)cc2[C@@H]1Cc1ccccc1

1.82
1.91
1.86
3.72
0.145

---

Can you tell me pKi for the items I'm about to list?
biological target: D(1A) dopamine receptor (Homo sapiens); experiment: Binding potency of compound for Dopamine receptor D1 by displacing [3H]SCH-23390 radioligand
Sequence (P21728 whole entry): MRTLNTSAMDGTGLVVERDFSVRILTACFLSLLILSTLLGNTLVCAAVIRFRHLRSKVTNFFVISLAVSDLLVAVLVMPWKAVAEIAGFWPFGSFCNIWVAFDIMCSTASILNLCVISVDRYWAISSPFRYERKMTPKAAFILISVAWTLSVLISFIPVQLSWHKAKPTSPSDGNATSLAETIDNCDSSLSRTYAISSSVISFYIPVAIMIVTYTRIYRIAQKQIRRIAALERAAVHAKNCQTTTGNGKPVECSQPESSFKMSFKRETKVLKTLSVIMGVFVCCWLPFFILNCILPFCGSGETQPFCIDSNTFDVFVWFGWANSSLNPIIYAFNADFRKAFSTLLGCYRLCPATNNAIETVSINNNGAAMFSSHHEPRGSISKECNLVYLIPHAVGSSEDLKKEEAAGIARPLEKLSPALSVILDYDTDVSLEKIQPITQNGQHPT
Numbers only, as −log10 of the molar value.

Illustrative cases are given below, each with its answer.
CN1Cc2cc(Cl)c(O)cc2[C@H](c2ccccc2)C1	7.06
Oc1cc2c(cc1Cl)CNC[C@H]2c1ccccc1	6.55
Oc1cc2c(cc1Cl)CCN[C@H]2c1ccccc1	6.85
CN1CCc2cc(Cl)c(O)cc2[C@H]1c1ccccc1	6.35
CCCN1CCc2cc(Cl)c(O)cc2[C@@H]1c1ccccc1	6.75
CN1CCc2cc(Cl)c(O)cc2[C@@H]1Cc1ccccc1	7.57

# context switch: different molecule, same pKi
Look up pKi with D(1A) dopamine receptor (Homo sapiens) for this molecule: CN1CCc2cc(Cl)c(O)cc2[C@@H]1c1ccccc1
8.18

---

Would you kindly list Log Ki for each of these compounds?
test: DSAC inhibitory potency obtained by the conversion of [32P]-ATP to [32P]-cAMP
Answers are plain numbers.

Here are 7 compounds together with their reported answers.
Oc1cc2c(cc1Cl)CNC[C@H]2c1ccccc1	-6.2
CN1CCc2cc(Cl)c(O)cc2[C@H]1c1ccccc1	-6.25
CN1CCc2cc(Cl)c(O)cc2[C@@H]1Cc1ccccc1	-8.2
CN1CCc2cc(Cl)c(O)cc2[C@@H]1c1ccccc1	-8.18
CN1CCc2cc(Cl)c(O)cc2[C@@H](c2ccccc2)C1	-9.33
CN1Cc2cc(Cl)c(O)cc2[C@H](c2ccccc2)C1	-6.99
CCCN1CCc2cc(Cl)c(O)cc2[C@@H]1c1ccccc1	-6.69

Would you mind telling me what Log Ki value was observed for Oc1cc2c(cc1Cl)CCN[C@H]2c1ccccc1 ?
-6.96
